Attribution: patent US20110064740A1

# target: T1, human Aβ peptide (1-40) biotinylated at the C terminus (human, UniProt P05067 672-711, biotinylated at the C-terminus)
# T1 construct: domain: β-amyloid peptide (1-40); Numbers 1-40 count on the β-amyloid peptide, not on APP; also called beta-amyloid 1-40 peptide (biotinylated at the C-terminus); streptavidin-captured beta-amyloid (1-40)
# T1 sequence (P05067 672-711 limits assumed): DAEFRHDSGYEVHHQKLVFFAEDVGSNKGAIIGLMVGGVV
# experiment_description: Aβ binding ELISA, human Aβ (1-40) biotinylated at the C terminus
Form field: EC50 (one value per entry).
Quick reminder: number only, in µg/mL, skip the unit.

*Q* Param item = Humanised 2E7 variant H3L1 (antibody, human IgG1, kappa, V domains shown, Human IgG1 with L235A and G237A, human kappa; also called L1+H3) VH: EVQLVESGGGLVQPGGSLRLSCAASGFTFSDNGMAWVRQAPGKGLEWISFISNLAYSIDYADTVTGRFTISRDNAKNSLYLQMNSLRAEDTAVYYCVSGTWFAYWGQGTLVTVSS VL: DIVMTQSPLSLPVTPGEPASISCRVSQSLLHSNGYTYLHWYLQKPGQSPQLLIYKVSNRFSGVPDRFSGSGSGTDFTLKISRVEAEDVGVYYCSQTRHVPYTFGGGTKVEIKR ; retrieve measured EC50.
*A* 0.055

*Q* And what about the binder Humanised 2E7 variant H2L1 (antibody, human IgG1, kappa, V domains shown, Human IgG1 with L235A and G237A, human kappa; also called L1+H2; H2L1 whole IgG) VH: EVQLVESGGGLVQPGGSLRLSCAVSGFTFSDNGMAWVRQAPGKGLEWVSFISNLAYSIDYADTVTGRFTISRDNAKNSLYLQMNSLRAEDTAVYYCVSGTWFAYWGQGTLVTVSS VL: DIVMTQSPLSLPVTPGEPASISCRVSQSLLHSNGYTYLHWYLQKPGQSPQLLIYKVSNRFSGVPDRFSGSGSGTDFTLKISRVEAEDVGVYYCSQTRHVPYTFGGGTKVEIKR ?
*A* 0.044

*Q* And what about the binder Humanised 2E7 variant H1L1 (antibody, human IgG1, kappa, V domains shown, Human IgG1 with L235A and G237A, human kappa; also called L1+H1) VH: EVQLVESGGGLVQPGGSLRLSCAASGFTFSDNGMAWVRQAPGKGLEWVSFISNLAYSIDYADTVTGRFTISRDNAKNSLYLQMNSLRAEDTAVYYCVSGTWFAYWGQGTLVTVSS VL: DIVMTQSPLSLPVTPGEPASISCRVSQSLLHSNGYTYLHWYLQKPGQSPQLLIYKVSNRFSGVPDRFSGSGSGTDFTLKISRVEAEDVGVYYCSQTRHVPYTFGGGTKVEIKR ?
*A* 0.051
